Kindly supply the reported melting point values for the records listed here.

Requested read-out: melting point. Entry: O=C(/C=C1/c2ccccc2N(C(=O)c2ccc(NC(=O)c3ccccc3-c3ccccc3)cc2)CCC1(F)F)NCc1ccccc1 189 to 192 °C

Query Cc1nc2sc(C)c(C)n2c(=O)c1CCN1CCC(C(=O)c2ccc(F)cc2)CC1 next 159 °C

Query Cc1[nH]nc(C(C)C)c1Oc1cc(C#N)cc(C#N)c1 next 142 to 144 °C

Query CCC(C)C(NC(=O)OCc1ccccc1)C(=O)NC(Cc1c[nH]c2ccccc12)C(=O)OC (stereo not given) next 152 to 155 °C

Query CC1C(=O)OC2COCC21 (stereo not given) next 89.5 to 90 °C

Query CCCn1c(COCC)nc2c(N)nc3ccc(OC4CCN(S(C)(=O)=O)CC4)cc3c21 next 240 to 244 °C

Query O=C(O)CCCNC(=O)c1n[nH]cc1NC(=O)c1ccccn1 next 227 to 228 °C

Query C=CCOc1ccccc1S(N)(=O)=O next 104 to 105 °C

Query Cc1[nH]c(=O)ccc1C(=O)c1ccc([N+](=O)[O-])cc1 next 282 to 284 °C

Query O=C1CNC(=O)N1CCNCc1ccc(CN2CCCCC2)o1 next 133 to 136 °C

====

Kindly supply the reported melting point values for the records listed here.

Requested read-out: melting point. Entry: CCOCc1nc2c(N)nc3ccc(OCc4ccccc4)cc3c2n1CC(C)(C)NS(C)(=O)=O 90 °C

Query C#Cc1ccc(-c2c(C)nnc(OC)c2-c2c(F)cc(OC)cc2F)cc1 next 192 to 193 °C

Query COc1ccc(S(=O)(=O)N(CCO)c2cccc(F)c2/C=C/c2ccncc2)cc1 next 152 to 153 °C

Query Cc1nc2n(C)ncn2c(=O)c1CCO next 215 °C

Query CSCC(=O)[C@H](CC(C)C)NC(=O)[C@H](CC(C)C)NC(=O)OCc1ccccc1 next 96 to 97 °C

Query Oc1cc(C2CC2)[nH]n1 next 213 to 215 °C

Query O=C(O)CCCCCNC(=O)c1ccc(NC(=O)c2ccccc2O)cc1 next 201 to 203 °C

Query CCNC(=O)n1ccc2ccccc21 next 71 to 73 °C

Query CN(c1cccc2cc(-c3nc(CCC(N)=O)cs3)[nH]c12)S(=O)(=O)c1cccs1 next 200 to 201 °C

Query O=C1O[C@@H](COc2cnsn2)CN1c1ccc(C2=CCOCC2)c(F)c1 next 146 to 148 °C

====

endpoint_name: melting point

Requested read-out: melting point. Entry: C=C(OCc1ccccc1)C(=O)OC 44.5 to 45.5 °C

Query CCc1cn2c(=O)c(C#N)cnc2c2ccccc12 next 208 to 211 °C

Query COc1cc(CNC(=O)c2nc3scc(COCc4ccc(C(=O)O)cc4)c3c(=O)[nH]2)ccn1 next 240 to 242 °C

Query Clc1ccc(-c2c(Cl)nc(Cl)nc2-c2ccccc2)cc1 next 123 to 125 °C

Query Cc1cc2c(NC(=S)N3Cc4sccc4CC3CO)cccc2cn1 (racemic) next 145 °C

Query COC(=O)CCCCCS(=O)c1ccc(-c2ccc(Cl)cc2)cc1 (stereo unspecified) next 64 to 65 °C

Query C=CC(=O)OCCSc1ccc2sc3ccccc3c(=O)c2c1 next 68 to 71 °C

Query CC(C)(NC(=O)CCn1cnc(C=O)c1)c1ccc(Cl)cc1 next 151 to 153 °C

Query CCOc1ccc(C2=NN(C3CCN(C(=O)N4CCOCC4)CC3)C(=O)[C@@H]3CC=CC[C@H]23)cc1OCC next 139 to 141 °C

Query CCCCc1nn2ccccc2c1C(=O)c1ccccc1C#N next 116 °C

Query CCOC(=O)Nc1c(C(=O)c2cccc(C)c2)[nH]c2cc(Cl)ccc12 next 154 to 157 °C

Query CC(C)n1nc(-c2ncc(N)nc2-c2ccccc2Br)ccc1=O next 189 to 191 °C

Query COC(=O)C(Cc1ccc(OCCc2nc(-c3ccccc3)oc2C)cc1)C(=O)NC(C)=O (stereo unspecified) next 126 to 128 °C

Query CCCCc1ncc(/C=C(\Cc2cccs2)C(=O)O)n1Cc1ccc(C(=O)O)cn1 next 212 to 213 °C

Query CC(C)CC1(C(CCSc2cccs2)C(=O)NO)CCN(CCc2ccccc2)C1=O (stereo unspecified) next 109 to 110 °C

Query O=C1C(=O)c2ccccc2C2=C1SCC1(CCN(CCCCc3ccccc3)CC1)O2 next 145 to 147 °C

Query COc1ccc(-c2cc(Cl)c3ccccc3n2)cc1Cl next 113 to 116 °C

Query OC(c1ccccc1)c1ccc2[nH]nnc2c1 (stereo unspecified) next 143 °C

Query COc1ccc(/C(=C\C=C\C(=O)O)C2CC2)cc1 next 154 to 156 °C

Query CC(=O)NC1C(O)OC(COC(C)=O)C(O)(C(C)=O)C1OC(C)C(=O)O (stereo unspecified) next 85.8 to 90.8 °C

Query COc1ccc2c(c1)c(CC(=O)O)c(C)n2-c1ccnc2cc(Cl)ccc12 next 248 to 250 °C

Query FC(F)(F)C(=Cc1ccccc1)c1ccc(Cl)cc1 next 63 to 66 °C

Query CCOC1=NS(=O)(=O)c2ccc([N+](=O)[O-])cc21 next 151 to 154 °C

Query C[C@@H](Nc1ncnc2[nH]c(-c3ccc(C#N)cc3)cc12)c1ccccc1 next 333 to 336 °C

Query CC(CNC(=O)Nc1ccc([N+](=O)[O-])cc1O)OCc1ccccc1 (stereo unspecified) next 64.6 to 65.2 °C

Query CC(=O)Nc1nc(CCc2ccc(CCl)cc2)cs1 next 145 to 146 °C

Query COC(c1ccc(C)cc1)c1ccccc1Br (stereo unspecified) next 98 to 99 °C

Query COc1cccc(/C=C/C(=O)Nc2cccc(NC(=N)c3ccccc3)c2)c1 next 148 to 149 °C

Query Cc1cccc(-c2n[nH]cc2-c2ccnc(-c3ccc(-n4ccnc4C)cc3)c2)n1 next 128 °C

Query CC(C)CC(=O)Nc1cccc(-c2ccnc3c(C(=O)c4ccoc4)cnn23)c1 next 144 to 146 °C

Query CN(C)C(=S)Oc1ccc(CC#N)cc1 next 120 to 124 °C

Query O=C(NCc1ccc(Cl)cc1)c1cnc2c(Cl)cccc2c1O next 279 to 281 °C

Query CCOC(=O)C(c1ccncc1)C(c1ccccc1)c1ccc(OC)c(OC2CCCC2)c1 (stereo unspecified) next 165 to 166 °C

Query CC(C)CC(CS)C(=O)N[C@H]1Cc2cn(c3ccccc23)CCCCCCNC1=O (stereo partly specified) next 224 °C

Query CC(C)c1cc(C(C)C)c2c(c1)C1(N)C(=O)c3ccccc3C1(O)O2 (stereo unspecified) next 199 to 200 °C

Query CC(O)CC(=O)c1cccc2c1nc(-c1c(F)cccc1F)n2Cc1c(F)cccc1F (stereo unspecified) next 149 to 150 °C

Query COP(=O)(CC(O)c1c(C(C)C)nn(-c2ccccc2)c1-c1ccc(F)cc1)OC (stereo unspecified) next 126 to 128 °C

Query COc1ccccc1N1CCN(CCc2ccc3[nH]c(=O)oc3c2)CC1 next 182 to 184 °C

Query COc1nc(Br)cnc1NS(=O)(=O)c1cccc2c(N(C)C)cccc12 next 166 to 167 °C

Query CC(=O)C(C)Oc1cc(-n2c(=O)cc(C(F)(F)F)n(C)c2=O)c(F)cc1Br (stereo unspecified) next 119 °C

Query O=C1C2CC(c3ccc([N+](=O)[O-])cc3)(C2)C(=O)N1C1CCCCC1 next 163 to 164 °C

====

endpoint_name: melting point

Requested read-out: melting point. Entry: CC(C)(C)c1cc(Nc2ccc(C=CC(=O)O)cc2)cc(C(C)(C)C)c1O 199 to 200 °C

Query O=C(O)c1cc(NCc2ccccc2)c(Nc2ccccc2)c(S(=O)(=O)Nc2ccccc2)c1 next 243 °C

Query CS(=O)(=O)Nc1cc2occc(=O)c2cc1Oc1ccccc1NC=O next 203 to 204 °C

Query Cc1ccccc1C(=O)Nn1c(=O)c(=O)[nH]c2ccc3ccc([N+](=O)[O-])cc3c21 next > 230 °C

Query NCc1cccc(N)c1 next 40 to 43 °C

Query COc1ccc(C23CC(c4ccccc4)C(=O)N2CCN3)cc1 (stereo not given) next 150 °C

Query O=C1CCC2=C(CCc3cc(Cl)c(Cl)cc32)N1 next 260 to 261 °C

Query CCOC(=O)CCC(=O)NCc1ccc(N)cc1 next 62 to 64 °C

Query Cc1sc(C#N)c2c1C(=O)CC(C)(C)C2 next 73 to 75 °C

Query Cc1c(C)c2c(c(C)c1NC(=O)C(=O)C(C)(C)C)C(c1ccc(C(C)C)cc1)CO2 (stereo not given) next 142 to 143 °C

====

Kindly supply the reported melting point values for the records listed here.

Requested read-out: melting point. Entry: CCCCOC(=O)C(=O)c1ccc2c(c1)C1(C)CCN(C)C1N2C (centres undefined) 56 to 61 °C

Query CCCCCS(=O)(=O)NC(=O)/C=C/c1ccc(OCCOC(C)=O)cc1Oc1ncc(C(F)(F)F)cc1Cl next 141 to 144 °C

Query CCOC(=O)c1cc(O)c2c(n1)c(C)cc1c(O)cc(C(=O)OCC)nc12 next 198 to 200 °C

Query COc1cc(COc2cc(C=O)n(-c3ccccc3)n2)ccc1OCc1nc(-c2ccco2)oc1C next 103 to 104 °C

Query O=C(O)COCC(=O)OCC1CN(C(=O)Oc2ccccc2)CCC1c1ccc(F)cc1 (centres undefined) next 144 to 146 °C

Query CC1(C)OC(=O)Nc2c(F)cc(-c3csc(C#N)c3)cc21 next 250 to 251 °C

Query COC(=O)c1cc(N)c(C#N)s1 next 187 to 189 °C

Query O=C(NN1CCCC1=O)C(O)=CC(=O)c1cc(Cc2ccc(F)cc2F)cn(Cc2ccc(F)cc2)c1=O next 87 to 88 °C

Query Cn1c(/C=C/C=O)c(-c2ccccc2)c2ccccc2c1=O next 228 °C
